Reference for the values: PubChem BioAssay AID2314

Entries and their max response
Experimental Details: Cycloheximide Counterscreen for Small Molecule Inhibitors of Shiga Toxin; further: read at 38.3 µM for the half of the compounds with a filed dose
Assay Conditions: cell reporter, cycloheximide protein synthesis inhibition counterscreen; active compounds read high
Hit rate of the full screen: of about 300,000 compounds, about 37,000 (12%) were called active. The sample as a whole holds a higher share of actives than the screen did.

Molecule: Cc1ccc(C)c(S(=O)(=O)Nc2cc(C)on2)c1
max response: -1.71% (inactive)

Molecule: Cc1ccc(S(=O)(=O)NCCCn2ccnc2)cc1C(=O)NC(C)C
max response: -2.94% (inactive)

Molecule: CCCNC(=O)c1cnc(-c2ccccc2)nc1-c1ccccc1
max response: -6.13% (inactive)

Molecule: CCn1c(=S)sc2c(=O)n(CC(=O)Nc3ccc(OC)cc3)c(C)nc21
max response: -0.488% (inactive)

Molecule: COc1cc(C(=O)N2C(=O)c3cccc(N)c3C2=O)cc(OC)c1OC
max response: 2.15% (inactive)

Molecule: COc1ccc(C(=O)N/N=c2\oc3ccccc3cc2C(N)=O)cc1
max response: 45% (inactive)

Molecule: COc1ccccc1C(=O)OCC(=O)NCCNC(=O)COC(=O)c1ccccc1OC
max response: -1.55% (inactive)

Molecule: O=C(CNC(=O)c1ccco1)OCC(=O)c1ccccc1
max response: 19.9% (inactive)

Molecule: CC(C)C(C)(C#N)NC(=O)CSc1nc2scc(-c3ccccc3)c2c(=O)[nH]1 (stereo unspecified)
max response: -4.09% (inactive)

Molecule: NC(=O)c1cc2ccccc2o/c1=N/NC(=O)c1cccc(F)c1
max response: 8.31% (inactive)

Molecule: CC[C@H](C)[C@H](NC(=O)[C@@H](N)CCC(=O)O)C(=O)N[C@@H](CC(C)C)C(=O)N[C@@H](CC(=O)O)C(=O)N[C@H](C(=O)N1CCC[C@H]1C(=O)N[C@@H](CO)C(=O)N[C@H](C(=O)O)[C@@H](C)O)C(C)C
max response: 0.56% (inactive)

Molecule: O=C(NCCSc1ccccc1)c1ccco1
max response: 81.7% (active)

Molecule: Cc1ccc(-n2nc3ccc(NC(=O)/C=C/c4ccco4)cc3n2)cc1C
max response: 30.3% (inactive)

Molecule: COc1ccc2c(c1OC)C(=O)N(c1ncn[nH]1)C2
max response: 2.6% (inactive)

Molecule: COc1ccc(CN2CCN(C(=O)CCC(=O)Nc3nnc(C(C)C)s3)CC2)cc1F
max response: -9.15% (inactive)

Molecule: O=C(CCSc1ccccc1)NCCSc1ccccn1
max response: -3.74% (inactive)

Molecule: CC(C)NC(=O)C(c1ccc(F)cc1)N(C(=O)CCC(=O)Nc1ccccn1)c1ccccc1F (stereo unspecified)
max response: -2.11% (inactive)

Molecule: Cn1c(SCC(=O)N2CCCCC2)nc2c(c1=O)SCC2
max response: 9.54% (inactive)

Molecule: O=C(O)/C=C\C(=O)Nc1ccc(OCc2ccccc2)cc1
max response: 21.5% (inactive)

Molecule: COc1cccc2cc(C(N)=O)/c(=N\NC(=O)c3ccccc3)oc12
max response: 36.9% (active)

Molecule: CC(C)(C)c1nc2ccccc2c(=O)n1N1C(=O)c2ccccc2C1=O
max response: -2.32% (inactive)

###

Experimental Details: Cycloheximide Counterscreen for Small Molecule Inhibitors of Shiga Toxin; further: read at 38.3 µM for the half of the compounds with a filed dose
Assay Conditions: cell reporter, cycloheximide protein synthesis inhibition counterscreen; active compounds read high
Among all 300,000 compounds or so, about 37,000 (12%) were called active. Shown is part of a subset that was picked to be rich in actives.

Compound: CC(C)CN(Cc1c(O)ccc2c(=O)c(-c3ccccc3)coc12)CC(C)C
max response (%): 8.57
--
Compound: CCOc1ccc2nc(/N=C/c3nc(-c4ccccc4)oc3O)sc2c1
max response (%): -1.31
--
Compound: CCCCC[C@H]1CN(C2CCCCC2)C(=O)[C@@H]1CC(=O)NCc1ccc(OC)cc1
max response (%): -1.9
--
Compound: Cc1ccc(NC(=O)C2CC2c2ccccc2)cc1 (stereo not given)
max response (%): 28.4
--
Compound: CC(C)=CCc1c(O)c(CC=C(C)C)c2occ(-c3ccc(O)cc3)c(=O)c2c1O
max response (%): 10.9

###

Experimental Details: Cycloheximide Counterscreen for Small Molecule Inhibitors of Shiga Toxin; further: read at 38.3 µM for the half of the compounds with a filed dose
Assay Conditions: cell reporter, cycloheximide protein synthesis inhibition counterscreen; active compounds read high
Out of some 300,000 compounds screened, about 37,000 (12%) were called active. This is one part of a sample in which actives are shown more often than they occur.

Compound: CSc1ncccc1C(=O)NC1CCCCCC1
max response, %: 19.5

Compound: CCc1ccc(NC(=O)Cn2nnc(C(=O)NCc3ccc(OC)cc3)c2N)cc1
max response, %: -3.14

Compound: O=C1CCN(Cc2ccccc2)CCN1[C@H](CSc1ccccc1)c1ccccc1
max response, %: -1.82

Compound: COCCNC(=O)c1ccccc1NS(=O)(=O)c1ccc(C)c([N+](=O)[O-])c1
max response, %: -2.35

Compound: COc1ccc(N(Cc2ccccc2)S(=O)(=O)c2cccc(C(=O)O)c2)cc1
max response, %: -3.66

Compound: COc1ccc(CN(C)C(=O)CC(c2ccccc2)c2ccccc2)cc1
max response, %: -2.05

Compound: COc1ccc(C(CNC(=O)c2cccnc2SC)N2CCOCC2)cc1 (stereo unspecified)
max response, %: -3.3

Compound: O=C(COC(=O)c1ccc(F)cc1)Nc1nc2ccc([N+](=O)[O-])cc2s1
max response, %: 0.781

Compound: Cc1cnc(C(=O)Oc2cccc(Cl)c2Cl)cn1
max response, %: -2.93

Compound: CSc1ncccc1C(=O)Nc1nc2ccc(F)cc2s1
max response, %: 53.4

Compound: CC(C(=O)N1CCN(c2ccccc2F)CC1)c1ccc([N+](=O)[O-])cc1 (stereo unspecified)
max response, %: -0.676

###

Experimental Details: Cycloheximide Counterscreen for Small Molecule Inhibitors of Shiga Toxin; further: read at 38.3 µM for the half of the compounds with a filed dose
Assay Conditions: cell reporter, cycloheximide protein synthesis inhibition counterscreen
The campaign covered roughly 300,000 compounds. About 37,000 (12%) were called active. Rule as the data show it: active = max response mostly above about 13% (no sharp cut-off); inactive = mostly below about 14%. What follows is part of a selection rich in actives, with near analogues and random picks from the rest.
Labels: yes (1) = active, no (0) = inactive

Molecule: CC(C)(C)C(=O)Nc1ccc(-c2cn3cccnc3n2)cc1
Group Label: yes (1)

Molecule: N#Cc1ccc(C2N=C(c3ccccc3)NO2)cc1 (configuration not stated)
Group Label: yes (1)

Molecule: Cc1ccc(C(=O)Nc2nnc(-c3cccs3)s2)cc1C
Group Label: no (0)

Molecule: C/C=N/NC(=O)CCCC(=O)N/N=C/C
Group Label: no (0)

Molecule: Brc1ccccc1C1Nc2cccc3cccc(c23)N1
Group Label: no (0)

Molecule: O=C(CN(C(=O)c1csnn1)c1cccc(Cl)c1)NC1CCCC1
Group Label: no (0)

Molecule: C[C@H](NC(=O)c1nc[nH]c1C(=O)NCC(=O)OC(C)(C)C)c1ccccc1
Group Label: no (0)

Molecule: O=C(CN1CCN(c2ccc(F)cc2)CC1)Nc1ccccc1
Group Label: no (0)

Molecule: O=c1[nH]c(=S)n(C2CC2)c(O)c1/C=N/N1CCOCC1
Group Label: no (0)

Molecule: Cc1ccc(C(=O)Nc2nnc(C3=COCCO3)o2)cc1C
Group Label: yes (1)

Molecule: CC(=O)Nc1sc2c(c1C(c1cccc(F)c1)N1CCN(CCO)CC1)CCCC2 (configuration not stated)
Group Label: no (0)

Molecule: O=C(O)c1ccc(S(=O)(=O)N2CCC(Cc3ccccc3)CC2)cc1
Group Label: no (0)

###

# max response listing for each entry below
Experimental Details: Cycloheximide Counterscreen for Small Molecule Inhibitors of Shiga Toxin; further: read at 38.3 µM for the half of the compounds with a filed dose
Assay Conditions: cell reporter, cycloheximide protein synthesis inhibition counterscreen; active compounds read high
The whole screen tested about 300,000 compounds, of which about 37,000 (12%) were called active. The list comes from a sample in which actives are over-represented; it also holds close analogues and randomly drawn compounds.
Test Readout: max response (%)

Compound: COc1ccc(CNC(=O)C(c2ccc(O)cc2)N(Cc2ccco2)C(=O)c2snc(C(N)=O)c2N)cc1 (configuration not stated)
Val: 2.14
--
Compound: CCCc1cc(=O)oc2cc(OCC(=O)Nc3ccc(CN4CCOCC4)cc3)c(Cl)cc12
Val: -3.2
--
Compound: Cc1cccc(C2C3=C(CCCC3=O)N=C3c4ccccc4C(=O)C32)c1 (configuration not stated)
Val: -3.21
--
Compound: CC(Sc1nnnn1C)C(=O)NC(=O)NC1CCCCC1 (configuration not stated)
Val: 0.707
--
Compound: CCN(CC)c1ccc(C(=O)Nn2c(C)nc3ccccc3c2=O)cc1
Val: -2.07
--
Compound: Cc1ccc(Nc2ccc(C(N)=O)cc2[N+](=O)[O-])cc1
Val: 14.3
--
Compound: O=C(C[n+]1ccc2c(c1)nnn2-c1ccccc1)c1ccc(Cl)cc1
Val: 6.33
--
Compound: CC(=O)c1cc(CN2CCC(C(=O)Nc3cccc(-c4cscn4)c3)CC2)cs1
Val: 1.1
--
Compound: COc1ccc(OCC(=O)NNC(=O)c2cccc(C)c2)cc1
Val: -1.89
--
Compound: COc1ccc(S(=O)(=O)NC(C)c2ccccc2)cc1C(=O)N1CCCCC1 (configuration not stated)
Val: 8.07
--
Compound: O=C1CCCN2N=C(SCC(=O)Nc3ccc(Br)cc3)SC2=N1
Val: 7.4
--
Compound: COC(=O)c1cc(S(=O)(=O)N2CCC(C(N)=O)CC2)oc1C
Val: -3.53
--
Compound: CC(NC(=O)Cn1cc(C(F)(F)F)cc(Cl)c1=O)c1ccccc1 (configuration not stated)
Val: 11.8
--
Compound: CC(C)c1ccc2oc(=O)cc(CN3CCN(Cc4ccccc4)CC3)c2c1
Val: -1.81
--
Compound: O=C1CCC(C(=O)N2CCN(c3ccccc3Cl)CC2)CN1CC1CCCCC1 (configuration not stated)
Val: 9.87
--
Compound: NS(=O)(=O)c1cccnc1Nc1cccc(Cl)c1
Val: 5.31
--
Compound: N#C/C(=C(/O)COC(=O)COc1ccc(Cl)cc1)c1nc2ccccc2[nH]1
Val: -7.7
--
Compound: CC(=O)CC(c1ccccc1)C1C(=O)Oc2ccccc2C1=O (configuration not stated)
Val: -3.15
--
Compound: COC(=O)c1c(NC(=O)c2ccccc2F)sc2c1C(C(=O)OC)CC2 (configuration not stated)
Val: 7.34
--
Compound: Cn1c(=O)oc2cc(S(=O)(=O)NCCC(=O)NCc3ccccc3Cl)ccc21
Val: -6.54
--
Compound: O=C(Cc1nc2ccccc2[nH]c1=O)c1ccc(Cl)cc1
Val: 49.5
--
Compound: NC(=O)c1ccc(Nc2ccc3nonc3c2[N+](=O)[O-])cc1
Val: 6
